Ref: patent US20240217982A1

- target-desc: KRAS G12D (Homo sapiens (Human), UniProt P01116, G12D)
- Sequence (P01116-2 other isoform, or with tags, fused parts or gaps G12D): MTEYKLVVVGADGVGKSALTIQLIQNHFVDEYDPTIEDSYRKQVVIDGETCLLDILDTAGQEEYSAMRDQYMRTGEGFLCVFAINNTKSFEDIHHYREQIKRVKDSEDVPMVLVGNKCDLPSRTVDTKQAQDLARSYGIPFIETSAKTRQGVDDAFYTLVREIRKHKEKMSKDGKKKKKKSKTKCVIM
- assay-remarks: KRAS G12D Nucleotide Exchange Assay (HTRF)
- Assay type: biochemical
- measurement-conditions: recombinant GDP-loaded KRAS G12D (20 nM), BIODIPY-labeled GDP (400 nM), recombinant SOS (10 nM), HTRF signal
Outcome: Satisfied for KRASG12D Nucleotide Exchange Assay (IC50, µM) of at least 0.01 µM; Not satisfied for anything lower.

Challenge: Determine whether measured KRASG12D Nucleotide Exchange Assay (IC50, µM) meets or exceeds 0.01 µM for Cc1cc(N)nc(-c2c(Cl)cc3c(N4CC[C@H]5CC[C@@H](C4)N5)nc(OCC4(CN5CC[C@@H](F)C5)CC4)nc3c2F)c1C(F)(F)F
Response given: Satisfied

Challenge: Determine whether measured KRASG12D Nucleotide Exchange Assay (IC50, µM) meets or exceeds 0.01 µM for Cc1cc(N)nc(-c2c(Cl)cc3c(N4CC[C@H]5CC[C@@H](C4)N5)nc(OC[C@]45CCCN4C[C@@H](F)C5)nc3c2F)c1C(F)(F)F
Response given: Not satisfied

Challenge: Determine whether measured KRASG12D Nucleotide Exchange Assay (IC50, µM) meets or exceeds 0.01 µM for Cc1cc(N)nc(-c2c(Cl)cc3c(N4CC[C@H]5CC[C@@H](C4)N5)nc(OCC4(CN5C6CCC5COC6)CC4)nc3c2F)c1C(F)(F)F
Response given: Not satisfied

Challenge: Determine whether measured KRASG12D Nucleotide Exchange Assay (IC50, µM) meets or exceeds 0.01 µM for Cc1cc(N)nc(-c2c(Cl)cc3c(N4CC[C@H]5CC[C@@H](C4)N5)nc(OC[C@@]45CCCN4C[C@@H](OC(F)F)C5)nc3c2F)c1C(F)(F)F (single isomer, unassigned) [Example 10-6]
Response given: Satisfied

Challenge: Determine whether measured KRASG12D Nucleotide Exchange Assay (IC50, µM) meets or exceeds 0.01 µM for Cc1cc(N)nc(-c2ccc3c(N4CC[C@H]5CC[C@@H](C4)N5)nc(OCC45CCCN4CC(F)(F)C5)nc3c2F)c1C(F)(F)F (stereo partly drawn)
Response given: Satisfied

Challenge: Determine whether measured KRASG12D Nucleotide Exchange Assay (IC50, µM) meets or exceeds 0.01 µM for CCc1cccc2cc(O)cc(-c3ccc4c(N5CC[C@H]6CC[C@@H](C5)N6)nc(OC[C@]56CCC[C@H]5N(C)CCC6)nc4c3F)c12
Response given: Satisfied

Challenge: Determine whether measured KRASG12D Nucleotide Exchange Assay (IC50, µM) meets or exceeds 0.01 µM for CCc1cccc2cccc(-c3ccc4c(N5CC[C@H]6CC[C@@H](C5)N6)nc(OC[C@@]56CCCN5C[C@H](F)C6)nc4c3F)c12
Response given: Satisfied

Challenge: Determine whether measured KRASG12D Nucleotide Exchange Assay (IC50, µM) meets or exceeds 0.01 µM for CN1CCC[C@H]1COc1nc(N2C3CCNCC2CC3)c2cc(Cl)c(-c3cc(O)cc4ccccc34)c(F)c2n1 (stereo partly drawn)
Response given: Satisfied

Challenge: Determine whether measured KRASG12D Nucleotide Exchange Assay (IC50, µM) meets or exceeds 0.01 µM for Cc1cc(N)nc(-c2c(Cl)cc3c(N4CCC5CCC(C4)N5)nc(OC[C@@H]4CCCN4C)nc3c2F)c1C(F)(F)F (stereo partly drawn)
Response given: Satisfied

Challenge: Determine whether measured KRASG12D Nucleotide Exchange Assay (IC50, µM) meets or exceeds 0.01 µM for Oc1cc(-c2c(Cl)cc3c(N4CC[C@H]5CC[C@@H](C4)N5)nc(OC[C@@]45CCCN4C[C@H](F)C5)nc3c2F)c2ccccc2c1 (single isomer, unassigned) [Example 8-7]
Response given: Not satisfied

Challenge: Determine whether measured KRASG12D Nucleotide Exchange Assay (IC50, µM) meets or exceeds 0.01 µM for Cc1cc(N)nc(-c2c(Cl)cc3c(N4CC[C@H]5CC[C@@H](C4)N5)nc(OC[C@@]45CCCN4C[C@@H](OC(F)F)C5)nc3c2F)c1C(F)(F)F (single isomer, unassigned) [Example 10-5]
Response given: Satisfied

Challenge: Determine whether measured KRASG12D Nucleotide Exchange Assay (IC50, µM) meets or exceeds 0.01 µM for CCc1cccc2cc(O)cc(-c3c(Cl)cc4c(N5CC[C@H]6CC[C@@H](C5)N6)nc(OC[C@]56CCCN5C[C@@H](F)C6)nc4c3F)c12 (single isomer, unassigned) [Example 8-3]
Response given: Satisfied
